Biological target: T1, hIL-18BP-hFc (human, UniProt O95998 31-194, limits assumed)
T1 sequence (looked up): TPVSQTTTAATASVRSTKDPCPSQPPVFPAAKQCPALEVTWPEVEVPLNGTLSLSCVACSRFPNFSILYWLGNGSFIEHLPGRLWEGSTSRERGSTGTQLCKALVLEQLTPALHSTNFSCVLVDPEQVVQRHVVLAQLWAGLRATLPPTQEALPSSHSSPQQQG
Assay: cell-based or functional assay
OBSERVATION_TYPE: EC50 Fold Change (+BP/-BP), hIL-18 reporter assay (fold)

BINDER	READOUT_NUMBER
IL-18 variant polypeptide M36 (ligand) YFPKLSSKLSVIRNLNDQVLFIDQGNRPLFEDMTDSDCRDNAPRTIFIISMYKASDQRGMAVTISVKCEKISTLSCENKIISFKEMNPPDGIKDTKSDIIFFQRSVPGHDNKMQFESSSYEGYFLACEKERDLFKLILKKEDELGDRSIMFTVQNED	0.64
IL-18 variant polypeptide M37 (ligand) YFPKLGSKLSVIRNLNDQVLFIDQGNRPLFEDMTDSDCRDNAPRTIFIISMYKQSVWRGMAVTISVKCEKISTLSCENKIISFKEMNPPDNIKDTKSDIIFFQRSVPGHDNKMQFESSSYEGYFLACEKERDLFKLILKKEDELGDRSIMFTVQNED	2.36
IL-18 variant polypeptide M25 (ligand) YFPKLRSKLSVIRNLNDQVLFIDQGNRPLFEDMTDSDCRDNAPRTIFIISMYKLSTTRGMAVTISVKCEKISTLSCENKIISFKEMNPPDRIKDTKSDIIFFQRSVPGHDNKMQFESSSYEGYFLACEKERDLFKLILKKEDELGDRSIMFTVQNED	1.98
